Cited source for all entries: patent US9988400B2

target: HEK cells stably transfected with tetracycline inducible hNR1 and hNR2A (Homo sapiens, UniProt Q05586+Q12879); construct: expressed in transfected cells; host or cells: HEK cells, stably transfected, tetracycline/doxycycline inducible; experiment: Assay 1: Cell-Based Assay, cytosolic calcium response to positive allosteric modulators (with 30 μM glycine and 300 nM L-glutamate, EC30); conditions: Table 2; responses scaled relative to 100 μM L-glutamate maximal response (100%) and 0 μM L-glutamate (0%)
Sequence (Q12879 23-1464, other chains not shown): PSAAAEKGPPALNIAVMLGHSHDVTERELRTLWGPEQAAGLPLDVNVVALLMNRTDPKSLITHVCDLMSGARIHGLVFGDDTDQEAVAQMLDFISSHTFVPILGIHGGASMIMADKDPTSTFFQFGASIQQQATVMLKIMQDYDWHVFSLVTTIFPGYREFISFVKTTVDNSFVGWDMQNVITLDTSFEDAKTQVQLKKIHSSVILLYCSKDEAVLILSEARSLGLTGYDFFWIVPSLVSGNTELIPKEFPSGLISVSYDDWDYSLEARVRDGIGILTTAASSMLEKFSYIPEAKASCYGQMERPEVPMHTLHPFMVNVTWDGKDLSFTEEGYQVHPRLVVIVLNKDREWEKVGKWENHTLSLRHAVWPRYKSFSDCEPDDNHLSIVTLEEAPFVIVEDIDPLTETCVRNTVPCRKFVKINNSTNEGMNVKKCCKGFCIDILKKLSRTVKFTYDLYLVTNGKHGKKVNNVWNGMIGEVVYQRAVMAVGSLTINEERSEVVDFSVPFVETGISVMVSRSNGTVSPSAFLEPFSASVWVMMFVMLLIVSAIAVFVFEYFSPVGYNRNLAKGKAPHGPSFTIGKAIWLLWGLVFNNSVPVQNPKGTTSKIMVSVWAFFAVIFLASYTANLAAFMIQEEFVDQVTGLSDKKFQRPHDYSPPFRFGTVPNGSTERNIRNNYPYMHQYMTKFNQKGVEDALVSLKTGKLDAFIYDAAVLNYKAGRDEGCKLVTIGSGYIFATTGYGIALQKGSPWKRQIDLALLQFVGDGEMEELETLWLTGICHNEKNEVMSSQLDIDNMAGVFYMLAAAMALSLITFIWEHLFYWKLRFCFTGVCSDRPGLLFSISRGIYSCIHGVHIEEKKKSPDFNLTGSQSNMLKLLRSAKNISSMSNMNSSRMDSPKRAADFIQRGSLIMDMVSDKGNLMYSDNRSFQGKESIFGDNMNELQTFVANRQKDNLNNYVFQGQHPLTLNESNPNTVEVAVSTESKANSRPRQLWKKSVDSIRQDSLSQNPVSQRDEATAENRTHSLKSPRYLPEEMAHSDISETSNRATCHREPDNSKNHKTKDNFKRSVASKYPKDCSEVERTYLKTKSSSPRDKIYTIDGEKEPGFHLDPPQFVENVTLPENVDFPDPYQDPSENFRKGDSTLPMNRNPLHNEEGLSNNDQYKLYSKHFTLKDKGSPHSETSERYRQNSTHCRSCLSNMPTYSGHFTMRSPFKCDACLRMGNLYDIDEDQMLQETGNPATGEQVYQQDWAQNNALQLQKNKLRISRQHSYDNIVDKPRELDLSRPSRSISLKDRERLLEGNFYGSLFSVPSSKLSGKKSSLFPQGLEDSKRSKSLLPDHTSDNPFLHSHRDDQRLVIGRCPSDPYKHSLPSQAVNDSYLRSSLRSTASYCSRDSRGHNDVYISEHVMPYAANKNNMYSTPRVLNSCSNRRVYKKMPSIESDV
assay endpoint: Max % (%)

Examples with their reported Max % follow.
• CCN(Cc1cc(=O)n2c3c(sc2n1)CCN(C)C3)c1ccc(F)cc1 = 127
• CNC(=O)c1c(C)sc2nc(Cc3cccc(C4CC4)c3)cc(=O)n12 = 72.9
• CCNC(=O)c1c(C)sc2nc(Cc3cccc(C)c3F)cc(=O)n12 = 124
• Cc1sc2nc(COc3ccc(F)cc3)cc(=O)n2c1C(=O)N1CCC1 = 45
• CCN(Cc1cc(=O)n2c(-c3cncc(Cl)c3)c(C)sc2n1)c1ccc(F)cc1 = 132
• CCN(Cc1cc(=O)n2c3c(sc2n1)CCC3)c1ccc(F)cc1 = 146
• CCN(Cc1cc(=O)n2c(C3CC3CO)c(C)sc2n1)c1ccc(F)cc1 (single isomer, unassigned) [Example 5.18] = 164
• CNC(=O)c1c(C)sc2nc(Cc3cccc(C#N)c3F)c(F)c(=O)n12 = 122
• Cc1sc2nc(Cn3nc(CCO)cc3C(F)(F)F)cc(=O)n2c1[C@@H]1C[C@H]1CO (relative stereo) = 122

(A) CNC(=O)c1c(C)sc2nc(COc3ccc(F)cc3)cc(=O)n12
(B) CCN(Cc1cc(=O)n2c(CCC#N)c(C)sc2n1)c1ccc(F)cc1
Looking only at measured Max %, which entry is lower, A or B ? Respond with the label that goes with your answer.
A
